biological target: T1, Biotin-labeled N2 peptide (also: biotin label, position not given here); assay: SPR (BIACORE X100), biotin-N2 peptide on NeutrAvidin chip, antibody in solution; steady state affinity
T1 construct: also called immobilized N2
T1 peptide: LMKNMDPLNDNV
Ends that are not written are not given here.
experimentalEndpoint: Kd

Example results:
Chimeric 21G6, human heavy chain constant region IgG1 with Q297 mutation (antibody, V domains shown, Human IgG1 constant region with Asn 297 to Gln; also called ch21G6 N297Q) VH: QVQLQQPGAELVKPGASVKLSCKASGYTFTSYYMYWVKQRPGQGLEWIGGINPSNGGTNFNEKFKSKATLTVDKSSSTAYMQLSSLTSEDSAVYYCTRWGYDREWFAYWGQGTLVTVSA VL: DIVMTQAAPSVPVTPGESVSISCRSSKSLLHSNGNTYLYWFLQRPGQSPQVLIYRMSNLASGVPDRFSGSGSGTAFTLRISRVEAEDVGVYYCMQHLEYPFTFGSGTKLEIKR    196 to 240 nM
H1-21G6 / L3-21G6 (Table 2, constant region not stated) (antibody, V domains shown, human kappa light chain; also called H1/L3) VH: QVQLVQSGAEVVKPGASVKLSCKASGYTFTSYYMYWVKQAPGQGLEWIGGINPSNGGTNFNEKFKSKATLTVDKSASTAYMELSSLRSEDTAVYYCTRWGYDREWFAYWGQGTLVTVSS VL: DIVMTQTPLSLSYTPGQPASISCRSSKSLLHSNGNTYLYWFLQKPGQSPQLLIYRMSNLASGVPDRFSGSGSGTDFTLKISRVEAEDVGVYYCMQHLEYPFTFGQGTKLEIKR    1000 nM
Murine 21G6 antibody (antibody, V domains shown, also called m21G6) VH: QVQLQQPGAELVKPGASVKLSCKASGYTFTSYYMYWVKQRPGQGLEWIGGINPSNGGTNFNEKFKSKATLTVDKSSSTAYMQLSSLTSEDSAVYYCTRWGYDREWFAYWGQGTLVTVSA VL: DIVMTQAAPSVPVTPGESVSISCRSSKSLLHSNGNTYLYWFLQRPGQSPQVLIYRMSNLASGVPDRFSGSGSGTAFTLRISRVEAEDVGVYYCMQHLEYPFTFGSGTKLEIKR    313 to 540 nM

# input // returns reported Kd for input H2-21G6 / L2-21G6 (Table 2, constant region not stated) (antibody, V domains shown, human kappa light chain; also called H2/L2) VH: QVQLVQSGAEVKKPGASVKVSCKASGYTFTSYYMYWVRQAPGQGLEWIGGINPSNGGTNFNEKFKSKATMTVDKSTSTAYMELRSLRSDDSAVYYCTRWGYDREWFAYWGQGTLVTVSS VL: DIVMTQSPLSLPVTPGEPASISCRSSKSLLHSNGNTYLYWFLQKPGQSPQLLIYRMSNLASGVPDRFSGSGSGTDFTLKISRVEAEDVGVYYCMQHLEYPFTFGQGTKLEIKR
# output 240 nM

# input // returns reported Kd for input H1-21G6 / L1-21G6 (Table 2, constant region not stated) (antibody, V domains shown, human kappa light chain; also called H1/L1) VH: QVQLVQSGAEVVKPGASVKLSCKASGYTFTSYYMYWVKQAPGQGLEWIGGINPSNGGTNFNEKFKSKATLTVDKSASTAYMELSSLRSEDTAVYYCTRWGYDREWFAYWGQGTLVTVSS VL: DIVMTQSPATLSVSPGERATISCRSSKSLLHSNGNTYLYWFQQKPGQPPKVLIYRMSNLASGVPARFSGSGSGTDFTLTISSVEPEDFATYYCMQHLEYPFTFGGGTKLEIKR
# output 320 nM
